# protocol: photoluminescence quantum yield (fraction); solvent given as SMILES
# condition-parameters: in Cc1ccccc1
measurement-kind: photoluminescence quantum yield
Give bare numbers.

Use the examples below as a reference point.
What does the record list as photoluminescence quantum yield for c1ccc(C2CCN3COc4c5ccccc5c5c6c7c(c2c3c46)C(c2ccccc2)CCN7CO5)cc1 (stereo not drawn) ?
0.871

Entry N#Cc1c(N2c3ccccc3C(c3ccccc3)(c3ccccc3)c3ccccc32)cccc1N1c2ccccc2C(c2ccccc2)(c2ccccc2)c2ccccc21 has what photoluminescence quantum yield?
0.67

Dear colleague, could you please provide photoluminescence quantum yield for the compounds listed below?
1. F[B-]1(F)n2c(c3cccc4cccc2c43)=Nc2cccc(Cl)[n+]21
2. Cc1cc2c(o1)=CC1=Cc3cc4oc(C)cc4n3[B-](F)(F)[N+]=21
3. COc1cc(-c2nc3c4cccnc4c4ncccc4c3[nH]2)c(OC)cc1/C=C/c1ccncc1

0.99
0.94
0.34

Answer for every listed entry: what is its photoluminescence quantum yield? The entries follow.
1. CCCCCCCCC1(CCCCCCCC)c2cc(-c3ccc(C=C4C(=O)c5ccccc5C4=O)cc3)ccc2-c2ccc(-c3ccc(C=C4C(=O)c5ccccc5C4=O)cc3)cc21
2. CC(C)(C)c1ccc(C2=C(c3ccc(C(C)(C)C)cc3)C(c3ccc(C(C)(C)C)cc3)=[N+]3C2=C(c2ccccc2)c2c(-c4ccc(C(C)(C)C)cc4)c(-c4ccc(C(C)(C)C)cc4)c(-c4ccc(C(C)(C)C)cc4)n2[B-]3(F)F)cc1
3. CC(C)(C)c1ccc2c(c1)c1cc(C(C)(C)C)ccc1n2-c1nc2ccccc2nc1-n1c2ccc(C(C)(C)C)cc2c2cc(C(C)(C)C)ccc21
4. Cc1cc(C)c(C2=C3C=c4c(c5ccc(C(C)(C)C)cc5c5cc(C(C)(C)C)ccc45)=[N+]3[B-](F)(F)n3c2cc2c4ccc(C(C)(C)C)cc4c4cc(C(C)(C)C)ccc4c23)c(C)c1
5. CCN(CC)c1ccc2cc(/C=C/C3=CC(/C=C/c4cc5ccc(N(CC)CC)cc5oc4=O)=[O+][B-](F)(F)O3)c(=O)oc2c1
6. CCCCCCCCc1ccc(-n2c3c(c4c2c2c(n4-c4ccc(CCCCCCCC)cc4)-c4ccccc4NB2c2ccccc2)B(c2ccccc2)Nc2ccccc2-3)cc1
7. CC1=CC(C)=[N+]2C1=C(c1ccc(C(=O)OC3C[C@@H]4CC[C@]3(C)C4(C)C)cc1)c1c(C)cc(C)n1[B-]2(F)F (stereo partly drawn)
8. [O-]c1ccccc1-c1[nH+]c2c3ccccc3c3ccccc3c2o1

0.011
0.57
0.32
0.29
0.849
0.7
0.37
0.111

For every item in the list below, what is its measured photoluminescence quantum yield?
1. COc1ccccc1-c1nc2c3ccccc3c3ccccc3c2o1
2. CCCCCCCCCCCCC(CCCCCCCCCC)Cn1c2cc(/C=C/C=C(C#N)C#N)c3cccc4c5cccc6c(/C=C/C=C(C#N)C#N)cc1c(c65)c2c34 (stereo not drawn)
3. CCCCCCCCN1c2ccccc2Sc2cc(/C=C/c3ccc(N(c4ccc(/C=C/c5ccc6c(c5)Sc5ccccc5N6CCCCCCCC)cc4)c4ccc(/C=C/c5ccc(/C=C/c6ccc(N(c7ccc(/C=C/c8ccc(N(c9ccccc9)c9ccccc9)cc8)cc7)c7ccc(/C=C/c8ccc(N(c9ccccc9)c9ccccc9)cc8)cc7)cc6)c6nsnc56)cc4)cc3)ccc21

1: 0.53; 2: 0.073; 3: 0.349

List photoluminescence quantum yield for every entry below, keeping the order given.
1. COc1cc(OC)cc(-c2ccc(-c3ccc(C#N)s3)s2)c1
2. CCCCCCc1ccc2c3c(ccc2c1)O[B-](c1ccccc1)(c1ccccc1)[N+](c1cc([N+]2=Cc4c(ccc5cc(CCCCCC)ccc45)O[B-]2(c2ccccc2)c2ccccc2)cc([N+]2=Cc4c(ccc5cc(CCCCCC)ccc45)O[B-]2(c2ccccc2)c2ccccc2)c1)=C3

1. 0.09
2. 0.29

Answer for every listed entry: what is its photoluminescence quantum yield? The entries follow.
1. CC1=CC(C)=[N+]2C1=C(c1c3ccccc3cc3ccccc13)c1c(C)cc(C)n1[B-]2(F)F
2. CC(C)[Si](C#Cc1c2ccc(C(C)(C)C)cc2c(C#Cc2c3ccc(C(C)(C)C)cc3c(C#C[Si](C(C)C)(C(C)C)C(C)C)c3ccc(C(C)(C)C)cc23)c2ccc(C(C)(C)C)cc12)(C(C)C)C(C)C
3. F[B-]1(F)n2c(cc(-c3ccccc3)c2-c2ccccc2)C(c2ccccc2)=C2C=C(c3ccccc3)C(c3ccccc3)=[N+]21
4. COc1ccc(-c2csc(-c3ccncc3)n2)cc1
5. CC1=CC(C)=[N+]2C1=C(c1c3ccccc3c(C)c3ccccc13)c1c(C)cc(C)n1[B-]2(F)F
6. [C-]#[N+]c1ccc(-c2ccc(N(C)C)cc2)cc1
7. N#CC=C(c1ccc(N2c3ccccc3Oc3ccccc32)cc1)c1ccc(N2c3ccccc3Oc3ccccc32)cc1
8. CCCCCCC(CCCCCC)N1C(=O)c2cccc3c(-c4ccc([Si](C)(C)C)cc4)ccc(c23)C1=O

1: 0.92; 2: 0.02; 3: 0.64; 4: 0.037; 5: 0.95; 6: 0.62; 7: 0.371; 8: 0.51

// input: 2 compounds below; output: photoluminescence quantum yield for each
1. O=C1OC(c2ccccc2)=N/C1=C\c1ccc(N(c2ccccc2)c2ccccc2)cc1
2. CCN1C(=O)C(C2C(=O)c3c4ccccc4cc4cc5ccccc5c2c34)C(=O)N(CC)C1=S (stereo not drawn)

1: 0.034; 2: 0.052
